# TGI listing for each entry below
tested on: OVCAR-5 ovarian; assay: NCI tumour cell line growth inhibition, 48 h

input: Bench note: what TGI did CC1(Br)C(=O)NC(=O)N([C@H]2C[C@H](O)[C@@H](CO)O2)C1N=[N+]=[N-] (stereo partly drawn) show?
output: > 100 µM

input: Quick one: TGI for CCOC(=O)C1C(=O)CC(C)(O)C(C(=O)OCC)C1c1ccc(O)c(OC)c1 (stereo not drawn) ?
output: > 100 µM

input: GET /values?readout=TGI&item= COc1cc([C@@H]2c3cc4c(cc3[C@@H](NC(=O)c3ccc(C(C)=O)cc3)C3COC(=O)[C@@H]32)OCO4)cc(OC)c1O (stereo partly drawn)
output: 7.69 µM

input: Reported TGI for `COc1ccc(-c2ccc(=O)oc2-c2cc(OC)c(OC)c(OC)c2)cc1O` : what is it?
output: > 100 µM

input: Query: TGI; subject: CC(=O)OC1CC(C)c2c1ncnc2N1CCN(C(=O)OC(C)(C)C)CC1 (stereo not drawn)
output: > 100 µM

input: For the molecule CCCC(=O)C(CC)/C(CCC(=O)N(Cc1ccccc1)Cc1ccccc1)=N/NC(=O)C[N+](C)(C)C (stereo not drawn) , what TGI is on record?
output: > 100 µM

input: Fill in: TGI of `CNNC1=NS(=O)(=O)c2cc(C(=O)OC)c(Cl)cc2S1` is ___
output: > 10 µM

input: Using the record for `CCCCCn1ncc(-c2c(O)c(O)cc3c(O)c(-c4c(C)cc5c(-c6cnn(CCCCC)n6)c(O)c(O)cc5c4O)c(C)cc23)n1` , report its TGI.
output: 6.57 µM

input: Consider the molecule shown here: `C/C(=N/NC(=S)Nc1cccc(Cl)c1)c1cccc(/C(C)=N\NC(=S)Nc2cccc(Cl)c2)n1` What is its recorded TGI?
output: > 85.8 µM

input: Recorded TGI for `COc1cccc2c1[C@H](OC)[C@]13O[C@@]1(C2=O)[C@H](O)[C@H](C)[C@@](O)(C(=O)[C@@H]1O[C@H]1C)[C@@H]3O` , please?
output: 2.05 µM

###

test system: T-47D breast; assay: NCI tumour cell line growth inhibition, 48 h
MEASURED_PROPERTY: TGI

Field: example entries. Status: answers known.
[[record]]
molecule = "CC(=O)OC1C(O)COC(Oc2c(C)c3c4c(c2O)[C@@H](C)CC[C@@H]4[C@@H](C)C[C@H]3C=C(C)C)C1O (some centres not stated)"
measured_target = "T-47D breast"
measured_property = "TGI"
test_value = "> 100 µM"

[[record]]
molecule = "CCOC(=O)c1c(N2CCOCC2)[nH]c(=O)c(C(c2ccc(N(C)C)cc2)c2c(O)c(C(=O)OCC)c(N3CCOCC3)[nH]c2=O)c1O"
measured_target = "T-47D breast"
measured_property = "TGI"
test_value = "> 100 µM"

[[record]]
molecule = "CNC(=S)N/N=C(\\C)c1ccc(OC)cc1O"
measured_target = "T-47D breast"
measured_property = "TGI"
test_value = "> 100 µM"

[[record]]
molecule = "COc1ccc(OC)c2c1C(=O)C(Cl)=C(Cl)C2=O"
measured_target = "T-47D breast"
measured_property = "TGI"
test_value = "8.09 µM"

[[record]]
molecule = "CNC(=O)OC(C)CN1c2ccccc2Sc2ccccc21 (configuration not stated)"
measured_target = "T-47D breast"
measured_property = "TGI"
test_value = "> 100 µM"


input: For the record `COc1ccc(S(=O)(=O)N2CCCCC2)cc1NC(=O)c1[nH]c(C)c2c1CCCCC2=O` , what value of TGI is listed for T-47D breast?
output: 46.9 µM

input: # query: TGI | item N#CC1(C#N)C(c2ccccc2)NC23CCCCC2C1(C#N)C(=O)N3 (configuration not stated) | system: T-47D breast
output: > 100 µM

###

system: SW-620 colon; assay: NCI tumour cell line growth inhibition, 48 h
MEASURED_PROPERTY: TGI

Please review the following examples before continuing.
[[record]]
compound = "CC(C)(C)c1cc2c(OP(c3ccccc3)c3ccccc3)c(c1)Cc1cc(C(C)(C)C)cc(c1OP(c1ccccc1)c1ccccc1)Cc1cc(C(C)(C)C)cc(c1OP(c1ccccc1)c1ccccc1)Cc1cc(C(C)(C)C)cc(c1OP(c1ccccc1)c1ccccc1)C2"
test_value = "> 50 µM"

[[record]]
compound = "CCc1nc2cc(/C=C/C(=O)NO)c(F)cc2c(=O)n1CCc1ccccc1"
test_value = "13.9 µM"


input: Item under review: `CC(C)c1cccc2sc(NC(=O)C(=O)CC(=O)c3ccc(F)cc3)nc12` . Reported TGI?
output: > 100 µM

###

Listing of entries alongside the reported TGI.
tested on: PC-3 prostate; experiment: NCI tumour cell line growth inhibition, 48 h
Number only, in µM; omit the unit.

See these solved cases before continuing.
[[record]]
smiles = "CN1CCN(c2ccc(NC3=C(Cl)C(=O)c4ncccc4C3=O)cc2C(F)(F)F)CC1"
unit_of_measurement = "µM"
test_value = 6.85

[[record]]
smiles = "O=C(Oc1ccccc1Cl)c1cccnc1Nc1ccnc(C(F)(F)F)c1"
unit_of_measurement = "µM"
test_value = 36.3


Now consider the entry below.
input: Which measured TGI value corresponds to `COc1ccc(OC)c(-c2cn3nc(-c4c[nH]c5ccc(Br)cc45)sc3n2)c1` ?
output: 4.66

###

test system: A498 renal; assay: NCI tumour cell line growth inhibition, 48 h
Mark Yes for reported TGI of 40 µM or greater; mark No for anything smaller.

Example entries begin here.
[[record]]
compound = "COc1ccc(OC)c2c1C(=O)C(Cl)=C(Cl)C2=O"
measured_target = "A498 renal"
class_name = "Yes"

[[record]]
compound = "c1ccc(CN2CCC3(CC2)ONC2=NCCN23)cc1"
measured_target = "A498 renal"
class_name = "Yes"

[[record]]
compound = "Cc1ccc2nc(NC(=O)CSC(=S)N3CCN(Cc4ccccc4)CC3)sc2c1"
measured_target = "A498 renal"
class_name = "Yes"

[[record]]
compound = "S=c1scc(-c2ccc(Cl)cc2)n1OC1CCCC1"
measured_target = "A498 renal"
class_name = "Yes"

[[record]]
compound = "NC(CCc1nc(-c2ccccc2)cs1)C(=O)O (stereo not given)"
measured_target = "A498 renal"
class_name = "Yes"

[[record]]
compound = "C[C@]1(O)CC(=O)[C@]2(O)C3=C(C=C[C@]2(O)C1)C(=O)c1c(O)cccc1C3=O"
measured_target = "A498 renal"
class_name = "No"

[[record]]
compound = "NC(=O)c1nnc2cc(F)c(F)cc2c1N"
measured_target = "A498 renal"
class_name = "Yes"

[[record]]
compound = "CN1C(=O)c2cccc3c([N+](=O)[O-])ccc(c23)C1=O"
measured_target = "A498 renal"
class_name = "No"

[[record]]
compound = "O=S(=O)(O)c1cc(O)c2c(O)c(N=Nc3ccc(/C=C/c4ccc(N=Nc5c(S(=O)(=O)O)cc6cc(S(=O)(=O)O)cc(O)c6c5O)cc4S(=O)(=O)O)c(S(=O)(=O)O)c3)c(S(=O)(=O)O)cc2c1"
measured_target = "A498 renal"
class_name = "Yes"


Alright, here's another compound for you.
input: Identify whether the reported TGI of the following compound is 40 µM or greater: `CC(C)(C)c1ccc(NC(=O)c2cc(=O)c3ccccc3[nH]2)c(C(C)(C)C)c1O`
output: No

###

test system: SK-OV-3 ovarian; assay: NCI tumour cell line growth inhibition, 48 h
MEASURED_PROPERTY: TGI

Would you please look over these solved cases?
[[record]]
compound = "Cn1cc(C=C(C#N)C#N)c(=O)n(C)c1=O"
test_value = "> 100 µM"

[[record]]
compound = "COc1cccc(N2CCc3c(C)c(C#N)c4nc5ccccc5n4c32)c1"
test_value = "> 100 µM"

[[record]]
compound = "COC(=O)c1c(C)cccc1C1CN=NC12Cc1c(C)cccc1C2=O (stereo unspecified)"
test_value = "> 100 µM"

[[record]]
compound = "CC(=O)[CH-]C(=O)c1ccccc1.CC(=O)[CH-]C(=O)c1ccccc1.CC(C)CCCC(C)[C@H]1CCC2[C@@H]3CCC4C[C@@H]([O-])CC[C@]4(C)C3CC[C@@]21C.CC(C)CCCC(C)[C@H]1CCC2[C@@H]3CCC4C[C@@H]([O-])CC[C@]4(C)C3CC[C@@]21C.Cl.[Ti+4] (stereo partly specified)"
test_value = "> 25 µM"

[[record]]
compound = "O=[N+]([O-])/C(Cl)=C(\\Sc1ccccc1)C(Cl)=C(Cl)Cl"
test_value = "13.3 µM"


input: Please look up its TGI: `Nc1nc(Cl)cc(NCCCCO)n1`
output: > 100 µM

input: Please report the recorded TGI for N#CC1(C#N)C(c2ccccc2)NC23CCCCC2C1(C#N)C(=O)N3 (stereo unspecified) .
output: > 100 µM

input: Reported TGI for `COc1ccc(Oc2nc3cc(C(F)(F)F)ccc3nc2C(C)C)cc1` : what is it?
output: > 100 µM

input: Give the measured TGI of `NC(N)=N/N=C/c1c(-c2ccc(Cl)c(Cl)c2Cl)nc2sccn12` .
output: 3.33 µM

input: Query (compound): `COc1ccc(CCNC(=O)Cc2ccccc2CCO)cc1OC` ; field requested: TGI
output: > 100 µM

input: So what does the record say about TGI for `COc1ccc(C(F)(F)F)cc1NC(=O)O/N=C(/Cl)C(C)C` ?
output: > 67.3 µM
